# test_target: T1, 4H3591-AA
# T1 chain: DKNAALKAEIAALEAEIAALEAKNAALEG
# assay_procedure: two-hybrid library CCmax;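 further: natural log of median RNA to DNA barcode read ratio; higher means stronger binding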
# condition_label: mean of both orientations
Recorded interaction score by entry
property: interaction score

>  <binder>
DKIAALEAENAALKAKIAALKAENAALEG [4H2283-AA]

>  <property>
interaction score

>  <assay_value>
-1.46

$$$$
>  <binder>
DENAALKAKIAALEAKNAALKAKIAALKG [4H1854-AA]

>  <property>
interaction score

>  <assay_value>
-0.937

$$$$
>  <binder>
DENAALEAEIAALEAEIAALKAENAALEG [4H1035-AA]

>  <property>
interaction score

>  <assay_value>
-1.08

$$$$
>  <binder>
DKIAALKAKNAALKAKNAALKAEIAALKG [4H3066-AA]

>  <property>
interaction score

>  <assay_value>
-1.59

$$$$
>  <binder>
DKNAALEAEIAALEAKNAALEAEIAALEG [4H3121-AA]

>  <property>
interaction score

>  <assay_value>
-1.55

$$$$
>  <binder>
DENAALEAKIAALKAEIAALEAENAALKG [4H1348-AA]

>  <property>
interaction score

>  <assay_value>
0.665

$$$$
>  <binder>
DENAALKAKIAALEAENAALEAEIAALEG [4H1809-AA]

>  <property>
interaction score

>  <assay_value>
-1.94

$$$$
